# tested.on: Urotensin-2 receptor (Rattus norvegicus, UniProt P49684)
# Sequence (P49684 whole entry): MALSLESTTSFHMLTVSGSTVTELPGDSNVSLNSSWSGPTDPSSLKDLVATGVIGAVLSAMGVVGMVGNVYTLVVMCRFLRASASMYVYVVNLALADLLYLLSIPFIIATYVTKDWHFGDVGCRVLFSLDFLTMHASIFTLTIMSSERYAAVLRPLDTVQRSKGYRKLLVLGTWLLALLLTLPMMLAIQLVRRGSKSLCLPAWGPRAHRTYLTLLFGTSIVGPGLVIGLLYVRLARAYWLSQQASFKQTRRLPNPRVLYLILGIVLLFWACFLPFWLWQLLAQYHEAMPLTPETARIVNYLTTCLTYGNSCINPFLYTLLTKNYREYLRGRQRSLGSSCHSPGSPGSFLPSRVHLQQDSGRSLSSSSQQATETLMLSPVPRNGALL
# assay.method.text: Agonist activity at UT receptor in Sprague-Dawley rat thoracic aortic ring assessed as induction of contraction
pEC50: −log10 of the molar value.
Use rule met when the recorded pEC50 is no lower than 8; use rule not met when it is lower.

| test.smiles | category |
| --- | --- |
| CC(C)[C@H](NC(=O)[C@@H]1CSSC[C@H](NC(=O)[C@H](C)N)C(=O)N[C@@H](Cc2ccc(C#Cc3ccccc3)cc2)C(=O)N[C@@H](Cc2c[nH]c3ccccc23)C(=O)N[C@@H](CCCCN)C(=O)N[C@@H](Cc2ccc(O)cc2)C(=O)N1)C(=O)O | rule not met |
| CC(C)[C@H](NC(=O)[C@@H]1CSSC[C@H](NC(=O)[C@@H](N)CC(=O)O)C(=O)N[C@H](Cc2ccc(I)cc2)C(=O)N[C@@H](Cc2c[nH]c3ccccc23)C(=O)N[C@@H](CCCCN)C(=O)N[C@@H](Cc2ccc(O)cc2)C(=O)N1)C(=O)O | rule not met |
| CC(C)[C@H](NC(=O)[C@@H]1CSSC[C@H](NC(=O)[C@H](C)N)C(=O)N[C@H](Cc2ccc(-c3ccccc3)cc2)C(=O)N[C@@H](Cc2c[nH]c3ccccc23)C(=O)N[C@@H](CCCCN)C(=O)N[C@@H](Cc2ccc(O)cc2)C(=O)N1)C(=O)O | rule met |
| CC(C)[C@H](NC(=O)[C@@H]1CSSC[C@H](NC(=O)[C@H](C)N)C(=O)N[C@@H](Cc2ccc(I)cc2)C(=O)N[C@@H](Cc2c[nH]c3ccccc23)C(=O)N[C@@H](CCCCN)C(=O)N[C@@H](Cc2ccc(O)cc2)C(=O)N1)C(=O)O | rule not met |
| CC(C)[C@H](NC(=O)[C@@H]1CSSC[C@H](NC(=O)[C@H](C)N)C(=O)N[C@@H](Cc2ccc(-c3ccccc3)cc2)C(=O)N[C@@H](Cc2c[nH]c3ccccc23)C(=O)N[C@@H](CCCCN)C(=O)N[C@@H](Cc2ccc(O)cc2)C(=O)N1)C(=O)O | rule not met |

----------
# tested.on: Urotensin-2 receptor (Homo sapiens)
# assay.method.text: Agonist activity at human UT receptor expressed in HEK293 cells co-expressing Gq-polycistronic BRET biosensor assessed as induction of Gq activation measured for 5 mins by luminescence detection based BRET assay relative to 10 uM URP
# Type: functional, cell-based
The label is 1 for Emax below 90% and -1 for Emax equal to or exceeding 90%.

| test.smiles | category |
| --- | --- |
| CC(C)[C@H](NC(=O)[C@@H]1CSSC[C@H](NC(=O)[C@@H](N)CC(=O)O)C(=O)N[C@@H](Cc2ccc(I)cc2)C(=O)N[C@@H](Cc2c[nH]c3ccccc23)C(=O)N[C@@H](CCCCN)C(=O)N[C@@H](Cc2ccc(O)cc2)C(=O)N1)C(=O)O | -1 |
| CC(C)[C@H](NC(=O)[C@@H]1CSSC[C@H](NC(=O)[C@H](C)N)C(=O)N[C@@H](Cc2ccc(I)cc2)C(=O)N[C@@H](Cc2c[nH]c3ccccc23)C(=O)N[C@@H](CCCCN)C(=O)N[C@@H](Cc2ccc(O)cc2)C(=O)N1)C(=O)O | -1 |
| CC(C)[C@H](NC(=O)[C@@H]1CSSC[C@H](NC(=O)[C@H](C)N)C(=O)N[C@@H](Cc2ccc(C#Cc3ccccc3)cc2)C(=O)N[C@@H](Cc2c[nH]c3ccccc23)C(=O)N[C@@H](CCCCN)C(=O)N[C@@H](Cc2ccc(O)cc2)C(=O)N1)C(=O)O | -1 |
| CC(C)[C@H](NC(=O)[C@@H]1CSSC[C@H](NC(=O)[C@@H](C)N)C(=O)N[C@@H](Cc2ccc(I)cc2)C(=O)N[C@@H](Cc2c[nH]c3ccccc23)C(=O)N[C@@H](CCCCN)C(=O)N[C@@H](Cc2ccc(O)cc2)C(=O)N1)C(=O)O | 1 |
